- System: field corn (Zea mays L., var. Dekalb 535, CORN)
- run.description: Pre-emerge test, crop safety
- Format: in vivo
- conditions.used: 250 g ai/ha; crop damage rating 0-100, 14 days after application
- Description: A standard greenhouse herbicide activity screening system was used to evaluate the herbicidal efficacy and crop safety of these test compounds. […] At 14 days after application of the test materials, phytotoxicity ratings were recorded. […]

molecule	experimental.system	Pre-emerge Herbicidal Activity CORN
COc1c(Cl)cc(F)c(-n2c(=O)cc(C(F)(F)F)n(C)c2=O)c1NC(=O)OCc1ccc2ccccc2c1 [4-28]	field corn (Zea mays L., var. Dekalb 535, CORN)	0
COc1c(Cl)cc(F)c(-n2c(=O)cc(C(F)(F)F)n(C)c2=O)c1NC(=O)OCc1cc(F)ccc1F [4-39]	field corn (Zea mays L., var. Dekalb 535, CORN)	90
CCCCCC(=O)Nc1c(OC)c(Cl)cc(F)c1-n1c(=O)cc(C(F)(F)F)n(C)c1=O [2-198]	field corn (Zea mays L., var. Dekalb 535, CORN)	90
Cn1c(C(F)(F)F)cc(=O)n(-c2ccc(Cl)cc2NC(=O)Oc2ccccc2)c1=O [4-50]	field corn (Zea mays L., var. Dekalb 535, CORN)	0
Cn1c(C(F)(F)F)cc(=O)n(-c2ccc(OC(F)(F)F)cc2NC(=O)c2ccc3ccccc3c2)c1=O [2-203]	field corn (Zea mays L., var. Dekalb 535, CORN)	0
COc1c(Cl)cc(F)c(-n2c(=O)cc(C(F)(F)F)n(C)c2=O)c1NC(=O)Nc1ccccc1 [Compound 3-4]	field corn (Zea mays L., var. Dekalb 535, CORN)	0
Cc1ccc(-n2c(=O)cc(C(F)(F)F)n(C)c2=O)c(NC(=O)c2ccc3ccccc3c2)c1 [2-201]	field corn (Zea mays L., var. Dekalb 535, CORN)	0
COc1c(Cl)cc(F)c(-n2c(=O)cc(C(F)(F)F)n(C)c2=O)c1NC(=O)C1CC1 [2-206]	field corn (Zea mays L., var. Dekalb 535, CORN)	100

----------
- Tested on: field corn (Zea mays L., var. Dekalb 535, CORN)
- run.description: Pre-emerge test, crop safety
- Assay type: in vivo
- conditions.used: 250 g ai/ha; rated 14 days after application; 0 = no damage, 100 = complete death
measurement.label: Pre-emerge phytotoxicity rating (0-100), crop damage, CORN

line.notation	result
COc1c(Cl)cc(F)c(-n2c(=O)cc(C(F)(F)F)n(C)c2=O)c1NC(=O)c1ccc(Br)cc1	95
COc1c(Cl)cc(F)c(-n2c(=O)cc(C(F)(F)F)n(C)c2=O)c1N(C(=O)C=Cc1ccccc1Cl)C(=O)C=Cc1ccccc1Cl	0
COc1c(Cl)cc(F)c(-n2c(=O)cc(C(F)(F)F)n(C)c2=O)c1NC(=O)COCc1ccccc1	30
COc1c(Cl)cc(F)c(-n2c(=O)cc(C(F)(F)F)n(C)c2=O)c1NC(=O)c1ccc2ccccc2c1	0

----------
- System: common ragweed (Ambrosia artemisizfolia L., AMBEL)
- run.description: Post-emerge test, greenhouse herbicide activity screening
- Format: in vivo
- conditions.used: 250 g ai/ha; phytotoxicity rating 0-100 (0 no damage, 100 complete death), 14 days after application
Entries annotated with measured Post-emerge Herbicidal Activity AMBEL
measurement.label: Post-emerge Herbicidal Activity AMBEL

compound	measurement.label	numeric.readout
CC(C)Oc1c(Cl)cc(F)c(-n2c(=O)cc(C(F)(F)F)n(C)c2=O)c1N	Post-emerge Herbicidal Activity AMBEL	50
CCOC(=O)C(C)Nc1c(OC)c(Cl)cc(F)c1-n1c(=O)cc(C(F)(F)F)n(C)c1=O (centres unmarked)	Post-emerge Herbicidal Activity AMBEL	50
COc1c(Cl)cc(F)c(-n2c(=O)cc(C(F)(F)F)n(C)c2=O)c1N(C(C)=O)C(C)=O	Post-emerge Herbicidal Activity AMBEL	70
CCc1ccc(C(=O)Nc2c(OC)c(Cl)cc(F)c2-n2c(=O)cc(C(F)(F)F)n(C)c2=O)cc1	Post-emerge Herbicidal Activity AMBEL	90
COc1c(Cl)cc(F)c(-n2c(=O)c(N)c(C(F)(F)F)n(C)c2=O)c1N	Post-emerge Herbicidal Activity AMBEL	30

----------
- System: sicklepod (Cassia obtusifolia, CASOB)
- run.description: Post-emerge test, greenhouse herbicide activity screening
- Type: in vivo
- conditions.used: post-emerge, 250 g ai/ha, 14 days after application, rating scale 0-100
measurement.label: phytotoxicity rating CASOB

compound	numeric.readout
COc1c(Cl)cc(F)c(-n2c(=O)cc(C(F)(F)F)n(C)c2=O)c1NC(=O)OCc1cc(C)cc(C)c1 [4-37]	100
COc1c(Cl)cc(F)c(-n2c(=O)cc(C(F)(F)F)n(C)c2=O)c1NC(=O)Nc1ccccc1 [Compound 3-4]	0
COc1c(Cl)cc(F)c(-n2c(=O)cc(C(F)(F)F)n(C)c2=O)c1NC(=O)c1ccc(F)cc1F [Compound 2-42]	100
COc1c(Cl)cc(F)c(-n2c(=O)cc(C(F)(F)F)n(C)c2=O)c1NC(=O)OCc1ccccn1 [4-36]	100
COc1c(Cl)cc(F)c(-n2c(=O)cc(C(F)(F)F)n(C)c2=O)c1NC(=O)OCc1ccc2ccccc2c1 [4-28]	50
COc1c(Cl)cc(F)c(-n2c(=O)cc(C(F)(F)F)n(C)c2=O)c1NC(N)=O [Compound 3-26]	60
COc1c(Cl)cc(F)c(-n2c(=O)cc(C(F)(F)F)n(C)c2=O)c1NC(=O)OCc1ccc(Cl)c(Cl)c1 [4-32]	80
COc1c(Cl)cc(F)c(-n2c(=O)cc(C(F)(F)F)n(C)c2=O)c1NC(=O)OCc1ccccc1C(F)(F)F [4-33]	70
COc1c(Cl)cc(F)c(-n2c(=O)cc(C(F)(F)F)n(C)c2=O)c1NC(=O)OCc1ccc(C(F)(F)F)cc1 [4-43]	60
Cc1ccc(OC(=O)Nc2c(C)c(Cl)cc(F)c2-n2c(=O)cc(C(F)(F)F)n(C)c2=O)cc1C [4-53]	90
COc1c(Cl)cc(F)c(-n2c(=O)cc(C(F)(F)F)n(C)c2=O)c1NC(=O)OCc1ccc(C)c(C)c1 [4-26]	60
COc1c(Cl)cc(F)c(-n2c(=O)cc(C(F)(F)F)n(C)c2=O)c1NC(=O)c1ccc(I)cc1 [2-66]	70
COc1c(Cl)ccc(-n2c(=O)cc(C(F)(F)F)n(C)c2=O)c1NC(=O)c1ccc2ccccc2c1 [2-202]	100
COc1c(Cl)cc(F)c(-n2c(=O)cc(C(F)(F)F)n(C)c2=O)c1NC(=O)OCc1c(Cl)cccc1Cl [4-24]	100
Cn1c(C(F)(F)F)cc(=O)n(-c2c(F)cc(Cl)c(O)c2NC(=O)c2ncccn2)c1=O [2-102]	0
COc1c(Cl)cc(F)c(-n2c(=O)cc(C(F)(F)F)n(C)c2=O)c1NC(=O)OCc1ccc2c(c1)OCO2 [4-41]	100
COc1c(Cl)cc(F)c(-n2c(=O)cc(C(F)(F)F)n(N)c2=O)c1NC(=O)c1ccc2ccccc2c1 [2-77]	100
COc1c(Cl)cc(F)c(-n2c(=O)cc(C(F)(F)F)n(C)c2=O)c1N(C(=O)COc1ccccc1)C(=O)COc1ccccc1 [2-120]	30
CCOC(=O)COc1c(Cl)cc(F)c(-n2c(=O)cc(C(F)(F)F)n(C)c2=O)c1NC(=O)C=Cc1ccccc1 [2-190]	80
COc1ccc(COC(=O)Nc2c(OC)c(Cl)cc(F)c2-n2c(=O)cc(C(F)(F)F)n(C)c2=O)cc1 [4-40]	100
COc1c(Cl)cc(F)c(-n2c(=O)cc(C(F)(F)F)n(C)c2=O)c1NC(=O)COC(C)=O [2-117]	95

----------
- System: field corn (Zea mays L., var. Dekalb 535, CORN)
- run.description: Pre-emerge test, crop safety
- Format: in vivo
- conditions.used: 63 g ai/ha; rating scale 0-100, 14 days after application
Entries annotated with measured Pre-emerge phytotoxicity rating, crop damage CORN
measurement.label: Pre-emerge phytotoxicity rating, crop damage CORN

molecule	numeric.readout
COc1c(Cl)cc(F)c(-n2c(=O)cc(C(F)(F)F)n(C)c2=O)c1CC(Cl)C(=O)OCCOc1ccccc1 (single isomer, unassigned) [14-28]	0
CCCCCOC(=O)C(Cl)Cc1c(OC)c(Cl)cc(F)c1-n1c(=O)cc(C(F)(F)F)n(C)c1=O (single isomer, unassigned) [14-10]	0
COc1c(Cl)cc(F)c(-n2c(=O)cc(C(F)(F)F)n(C)c2=O)c1CC(Cl)C(=O)OC(C)(C)C (stereo not drawn)	0
COc1c(Cl)cc(F)c(-n2c(=O)cc(C(F)(F)F)n(C)c2=O)c1CC(Cl)C(=O)OCC(F)(F)C(F)(F)C(F)(F)F (single isomer, unassigned) [14-23]	0
COCCOC(=O)C(Cl)Cc1c(OC)c(Cl)cc(F)c1-n1c(=O)cc(C(F)(F)F)n(C)c1=O (stereo not drawn)	95
COc1c(Cl)cc(F)c(-n2c(=O)cc(C(F)(F)F)n(C)c2=O)c1CC(C)(Cl)C(=O)OC(C)C (stereo not drawn)	0
